# target_system: Epidermal growth factor receptor (Homo sapiens, UniProt P00533, L858R/T790M)
# Sequence (P00533 25-1210 T790M/L858R limits assumed): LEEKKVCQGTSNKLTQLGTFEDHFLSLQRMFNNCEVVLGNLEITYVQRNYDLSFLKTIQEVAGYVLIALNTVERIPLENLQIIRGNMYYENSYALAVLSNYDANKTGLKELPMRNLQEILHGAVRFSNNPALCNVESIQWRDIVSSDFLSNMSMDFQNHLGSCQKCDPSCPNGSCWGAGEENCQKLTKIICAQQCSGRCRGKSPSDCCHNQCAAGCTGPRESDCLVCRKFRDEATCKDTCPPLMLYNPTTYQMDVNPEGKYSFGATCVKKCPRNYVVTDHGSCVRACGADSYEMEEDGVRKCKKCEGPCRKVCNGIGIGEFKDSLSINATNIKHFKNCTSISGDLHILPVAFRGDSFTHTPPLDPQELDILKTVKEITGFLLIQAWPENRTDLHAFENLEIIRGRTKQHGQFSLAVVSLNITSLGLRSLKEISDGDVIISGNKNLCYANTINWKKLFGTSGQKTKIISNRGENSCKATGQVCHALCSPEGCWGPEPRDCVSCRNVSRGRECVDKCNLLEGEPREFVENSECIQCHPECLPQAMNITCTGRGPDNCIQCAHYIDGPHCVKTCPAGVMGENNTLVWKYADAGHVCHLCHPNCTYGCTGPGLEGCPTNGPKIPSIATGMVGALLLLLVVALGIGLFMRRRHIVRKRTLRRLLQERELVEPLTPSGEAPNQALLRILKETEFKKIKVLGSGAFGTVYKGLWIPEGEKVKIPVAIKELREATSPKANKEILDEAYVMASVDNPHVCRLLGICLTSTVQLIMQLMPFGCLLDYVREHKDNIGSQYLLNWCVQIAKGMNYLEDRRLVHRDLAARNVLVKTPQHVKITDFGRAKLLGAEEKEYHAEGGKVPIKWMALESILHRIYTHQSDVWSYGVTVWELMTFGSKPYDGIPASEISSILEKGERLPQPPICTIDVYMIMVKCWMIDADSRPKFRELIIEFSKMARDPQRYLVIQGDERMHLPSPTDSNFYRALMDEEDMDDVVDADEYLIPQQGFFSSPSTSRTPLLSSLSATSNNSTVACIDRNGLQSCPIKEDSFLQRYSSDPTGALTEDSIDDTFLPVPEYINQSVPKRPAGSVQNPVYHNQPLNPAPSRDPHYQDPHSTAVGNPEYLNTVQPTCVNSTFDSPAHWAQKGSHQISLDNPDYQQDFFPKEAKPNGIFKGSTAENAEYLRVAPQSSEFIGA
# experiment_description: Inhibition of recombinant human N-terminal GST-tagged EGFR (669 to 1210 residues) (unknown origin) L858R/T790M mutant expressed in baculovirus infected Sf21 insect cells using AQT0734 as substrate measured up to 240 mins by fluorescence assay
readout_type: Ki (nM)
# unit: nM | format: bare number

Query: Answer with Ki of `C=CC(=O)Nc1cc(Nc2nccc(-n3cc(CN(C)C)c(-c4ccccc4)n3)n2)c(OC)cc1N1CCOCC1` measured for Epidermal growth factor receptor (Homo sapiens, UniProt P00533, L858R/T790M).
Response: 34
